Test system: Escherichia coli
Test: Antimicrobial activity against Escherichia coli ATCC 25922 after 18 hrs by twofold agar dilution method
Format: functional
Conditions: ATCC 25922, 18 h
# MIC per record follows

Query :: Report MIC for C[C@H](CO)[C@H]1CC[C@H]2[C@@H]3CC[C@H]4C[C@@H](NCCCNCCCCNCCCN)CC[C@]4(C)[C@H]3CC[C@]12C.Cl.Cl.Cl.Cl tested on Escherichia coli.
Result :: > 32 µg/mL

Query :: Next: C[C@H](CO)[C@H]1CC[C@H]2[C@@H]3CC[C@@H]4C[C@H](NCCCNCCCCN)CC[C@]4(C)[C@H]3CC[C@]12C.Cl.Cl.Cl
Result :: > 32 µg/mL

Query :: Next: C[C@H](CO)[C@H]1CC[C@H]2[C@@H]3CC[C@@H]4C[C@H](NCCCNCCCCNCCCN)CC[C@]4(C)[C@H]3CC[C@]12C.Cl.Cl.Cl.Cl
Result :: > 32 µg/mL

Query :: Next: C[C@H](CO)[C@H]1CC[C@H]2[C@@H]3CC[C@H]4C[C@H](NCCCNCCCCNCCCN)CC[C@]4(C)[C@H]3CC[C@]12C.Cl.Cl.Cl.Cl
Result :: > 32 µg/mL

Query :: Next: C[C@H](CO)[C@H]1CC[C@H]2[C@@H]3[C@H](F)C[C@H]4C[C@@H](NCCCNCCCCN)CC[C@]4(C)[C@H]3CC[C@]12C.Cl.Cl.Cl
Result :: > 32 µg/mL
